assaySystem: Uridine phosphorylase 1 (Homo sapiens, UniProt Q16831)
assay: Binding affinity to human recombinant UP1-R1P binary complex expressed in Escherichia coli Rosetta (DE3) at 50 uM R1P by isothermal titration calorimetric analysis
Sequence (Q16831 whole entry): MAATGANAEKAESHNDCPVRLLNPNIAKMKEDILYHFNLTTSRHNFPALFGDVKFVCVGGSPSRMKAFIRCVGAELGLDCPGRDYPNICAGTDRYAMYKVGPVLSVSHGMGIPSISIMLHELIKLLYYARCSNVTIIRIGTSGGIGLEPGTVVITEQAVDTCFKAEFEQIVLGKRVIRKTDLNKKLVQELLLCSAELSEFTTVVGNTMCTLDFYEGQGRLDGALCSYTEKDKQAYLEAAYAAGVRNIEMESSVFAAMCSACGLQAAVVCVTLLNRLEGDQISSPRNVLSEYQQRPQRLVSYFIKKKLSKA
property: pKd
One number for each entry, as −log10 of the molar value.

Query block: Please report pKd with Uridine phosphorylase 1 (Homo sapiens, UniProt Q16831) for item `Cc1c(CNC(CO)CO)c(O)[nH]c(=O)c1C#N` .
Result block: 5.15

---

assaySystem: Uridine phosphorylase 1 (Homo sapiens, UniProt Q16831)
assay: Inhibition of human recombinant UP1 expressed in Escherichia coli Rosetta (DE3) using URD and inorganic phosphate as substrate at 1 uM after 60 seconds by spectrophotometric analysis relative to control
Sequence (Q16831 whole entry, looked up): as the sequence (Q16831 whole entry) above
Lab note: compare inhibition against 20%. Equal or greater, write True. Smaller, write False.

Query block: Quick check, inhibition >= 20%? `N#Cc1ccc(O)[nH]c1=O`
Result block: True

Continuing:
Query block: Quick check, inhibition >= 20%? `N#Cc1c(-c2ccccc2)cc(O)[nH]c1=O`
Result block: True

Query block: Quick check, inhibition >= 20%? `Cc1c(Cc2ccccc2)c(O)[nH]c(=O)c1C#N`
Result block: True

Query block: Quick check, inhibition >= 20%? `CC(C)c1cc(O)[nH]c(=O)c1C#N`
Result block: True

---

Give inhibition for every item shown.
assaySystem: Uridine phosphorylase 1 (Homo sapiens)
assay: Inhibition of human recombinant UP1 expressed in Escherichia coli Rosetta (DE3) using URD and inorganic phosphate as substrate at 1 uM after 60 seconds by spectrophotometric analysis relative to control
Numbers only, in %.

Would you please look over these solved cases?
Query block: Tell us which inhibition value is on record for `N#Cc1c(Cc2ccccc2)cc(O)[nH]c1=O`
Result block: 2

Query block: Tell us which inhibition value is on record for `Cc1c(CNC(CO)CO)c(O)[nH]c(=O)c1C#N`
Result block: 82

Query block: Tell us which inhibition value is on record for `Cc1c(-c2ccccc2)c(O)[nH]c(=O)c1C#N`
Result block: 12

Query block: Tell us which inhibition value is on record for `O=c1cccc(O)[nH]1`
Result block: 38

Query block: Tell us which inhibition value is on record for `Cc1c(CN2CCCCC2)c(O)[nH]c(=O)c1C#N`
Result block: 49

Query block: Tell us which inhibition value is on record for `Cc1ccc(O)[nH]c1=O`
Result block: 12

Next up:
Query block: Tell us which inhibition value is on record for `Cc1cc(O)[nH]c(=O)c1C#N`
Result block: 70

---

assaySystem: Uridine phosphorylase 1 (Homo sapiens, UniProt Q16831)
assay: Competitive inhibition of human recombinant UP1 expressed in Escherichia coli Rosetta (DE3) using URD as substrate by Lineweaver-Burk plot analysis
# note: exactly 100 nM is not below, so it is not fulfilled; use fulfilled for Kis strictly under it

Worked set:
Query block: Criterion: Kis strictly below 100 nM. Is it met by `Cc1c(CNC(CO)CO)c(O)[nH]c(=O)c1C#N` ?
Result block: fulfilled

Query block: Criterion: Kis strictly below 100 nM. Is it met by `Cc1c(CNCCO)c(O)[nH]c(=O)c1C#N` ?
Result block: fulfilled

Continuing:
Query block: Criterion: Kis strictly below 100 nM. Is it met by `O=c1[nH]c(=O)n(COCCO)cc1Cc1ccccc1` ?
Result block: not fulfilled

Query block: Criterion: Kis strictly below 100 nM. Is it met by Cc1c(CNCC(O)CO)c(O)[nH]c(=O)c1C#N (stereo not given) ?
Result block: not fulfilled

---

assaySystem: Uridine phosphorylase 1 (Homo sapiens, UniProt Q16831)
assay: Binding affinity to human recombinant UP1 expressed in Escherichia coli Rosetta (DE3) by isothermal titration calorimetric analysis
property: pKd
Answers are plain numbers, as −log10 of the molar value.

Query block: Tell us which pKd value is on record for `O=c1[nH]c(=O)n(COCCO)cc1Cc1ccccc1`
Result block: 5.92

---

Give Kii for every item shown.
assaySystem: Uridine phosphorylase 1 (Homo sapiens, UniProt Q16831)
assay: Uncompetitive inhibition of human recombinant UP1 expressed in Escherichia coli Rosetta (DE3) using inorganic phosphate as substrate by Lineweaver-Burk plot analysis
Numbers only, in nM.

Provide each entry's Kii from the list below.
1. Cc1cc(O)[nH]c(=O)c1C#N
2. Cc1c(CNC(CO)CO)c(O)[nH]c(=O)c1C#N
3. Cc1c(CN(C)C)c(O)[nH]c(=O)c1C#N
4. Cc1c(CNCCO)c(O)[nH]c(=O)c1C#N
5. Cc1c(CNCC(O)CO)c(O)[nH]c(=O)c1C#N (stereo not given)

Result block:
332
98
107
127
182

---

assaySystem: UniProt Q16831
assay: Induction of uridine phosphorylase-mediated drug metabolism in human liver
property: metabolised

Query block: Tell us which metabolised value is on record for O=c1ccn([C@@H]2O[C@H](CO)[C@@H](O)[C@H]2O)c(=O)[nH]1 [URIDINE]
Result block: > 80%

---

Target sequence: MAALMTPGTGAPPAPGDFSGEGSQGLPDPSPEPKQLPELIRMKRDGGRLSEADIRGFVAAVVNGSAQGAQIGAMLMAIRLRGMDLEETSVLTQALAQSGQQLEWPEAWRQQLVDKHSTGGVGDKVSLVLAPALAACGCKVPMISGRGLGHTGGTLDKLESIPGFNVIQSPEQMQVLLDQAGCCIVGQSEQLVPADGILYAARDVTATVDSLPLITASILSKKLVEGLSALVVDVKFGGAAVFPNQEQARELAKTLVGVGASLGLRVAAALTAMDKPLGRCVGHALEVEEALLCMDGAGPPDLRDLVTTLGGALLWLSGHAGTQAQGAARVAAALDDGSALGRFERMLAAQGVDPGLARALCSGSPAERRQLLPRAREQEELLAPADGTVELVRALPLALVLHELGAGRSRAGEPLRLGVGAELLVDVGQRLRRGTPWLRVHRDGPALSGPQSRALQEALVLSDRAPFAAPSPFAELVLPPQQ
pIC50: −log10 of the molar value.
property: pIC50

Query block: Tell us which pIC50 value is on record for `Cc1c(CN(C)C)c(O)[nH]c(=O)c1C#N`
Result block: < 4.00

Next up:
Query block: Tell us which pIC50 value is on record for `Cc1c(CNC(CO)CO)c(O)[nH]c(=O)c1C#N`
Result block: < 4.00

---

Give inhibition for every item shown.
assaySystem: UniProt:Q16831
assay: Inhibition of human recombinant UP1 expressed in Escherichia coli Rosetta (DE3) using URD and inorganic phosphate as substrate at 1 uM after 60 seconds by spectrophotometric analysis relative to control
Answers are plain numbers, in %.

Would you please look over these solved cases?
Query block: Tell us which inhibition value is on record for `CCN(CC)Cc1c(O)[nH]c(=O)c(C#N)c1C`
Result block: 25

Query block: Tell us which inhibition value is on record for `Cc1cc(O)[nH]c(=O)c1`
Result block: 16

Query block: Tell us which inhibition value is on record for `CCCc1cc(O)[nH]c(=O)c1C#N`
Result block: 16

Provide each entry's inhibition from the list below.
1. Cc1cc(O)[nH]c(=O)c1C
2. Cc1c(CNCC(O)CO)c(O)[nH]c(=O)c1C#N (stereo not given)
3. Cc1c(CN(C)C)c(O)[nH]c(=O)c1C#N
4. Cc1c(CNCCO)c(O)[nH]c(=O)c1C#N
5. Cc1c(CN2CCOCC2)c(O)[nH]c(=O)c1C#N

Result block:
1: 9.5; 2: 78; 3: 81; 4: 80; 5: 51

Provide each entry's inhibition from the list below.
1. CCc1cc(O)[nH]c(=O)c1C#N
2. O=c1[nH]cc(CNCCO)c(=O)[nH]1

Result block:
1: 25; 2: 2

Values were extracted from ChEMBL document CHEMBL3085774.
